# experimental-target: STING AQ (His-TVMV-S-hSTING(155-341)-G230A-R293Q) (Homo sapiens, UniProt Q86WV6, G230A/H232R/R293Q)
# Construct: STING AQ: His-TVMV-S-hSTING(155-341)-G230A-R293Q
# Sequence (Q86WV6 with tags, fused parts or gaps G230A/H232R/R293Q): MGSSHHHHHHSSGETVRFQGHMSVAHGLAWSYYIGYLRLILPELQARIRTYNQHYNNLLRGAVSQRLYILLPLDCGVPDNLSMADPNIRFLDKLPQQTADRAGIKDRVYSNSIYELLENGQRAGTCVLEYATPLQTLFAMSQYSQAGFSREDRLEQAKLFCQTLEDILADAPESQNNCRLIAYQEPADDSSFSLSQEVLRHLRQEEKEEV
# experimental-details: STING HTRF binding assay (time resolved FRET competition), STING AQ
# experimental-setup: 20 nM His-tagged STING AQ cytoplasmic domain, 40 nM fluorescein-labeled cGAMP analog probe, one hour; read-out: HTRF Binding Assays IC50 AQ
observed-property: IC50 (nM)

So what's the measured IC50 for this one? Nc1ncnc2c1ncn2[C@@H]1O[C@@H]2COP(=O)(S)O[C@@H]3[C@H](O)[C@@H](COP(=O)(S)O[C@H]2[C@H]1F)O[C@H]3n1nnc2c([N+](=O)[O-])cccc21 (single isomer, unassigned) [Example 7-4]
10

Now try Nc1ncnc2c1ncn2[C@@H]1O[C@@H]2COP(=O)(S)O[C@@H]3[C@H](O)[C@@H](COP(=O)(O)O[C@H]2[C@H]1F)O[C@H]3n1nnc2c([N+](=O)[O-])cccc21 (single isomer, unassigned) [Example 5-2] .
10

Now try Nc1ncnc2c1ncn2[C@@H]1O[C@@H]2COP(=O)(S)O[C@@H]3[C@H](O)[C@@H](COP(=O)(S)O[C@H]2[C@H]1F)O[C@H]3n1nnc2c([N+](=O)[O-])cccc21 (single isomer, unassigned) [Example 7-1] .
10

Now try Nc1ncnc2c1ncn2[C@@H]1O[C@@H]2COP(=O)(S)O[C@@H]3[C@H](F)[C@@H](COP(=O)(S)O[C@H]2[C@H]1F)O[C@H]3n1nnc2c([N+](=O)[O-])cccc21 (single isomer, unassigned) [Example 11-1] .
2

Now try Nc1ncnc2c1ncn2[C@@H]1O[C@@H]2COP(=O)(S)O[C@@H]3[C@H](O)[C@@H](COP(=O)(S)O[C@H]2[C@H]1F)O[C@H]3n1nnc2c([N+](=O)[O-])cccc21 (single isomer, unassigned) [Example 7-2] .
40

Now try Nc1ncnc2c1ncn2[C@@H]1O[C@@H]2COP(=O)(S)O[C@@H]3[C@H](O)[C@@H](COP(=O)(S)O[C@H]2[C@H]1F)O[C@H]3n1nnc2c(C(F)(F)F)cccc21 (single isomer, unassigned) [Example 9-2] .
10

A = O=[N+]([O-])c1cccc2c1nnn2[C@@H]1O[C@@H]2COP(=O)(S)O[C@H]3[C@@H](F)[C@H](n4cnc5c4ncn4ccnc54)O[C@@H]3COP(=O)(S)O[C@@H]1[C@@H]2F (stereo partly shown)
B = Nc1ncnc2c1ncn2[C@@H]1O[C@@H]2COP(=O)(S)O[C@@H]3[C@H](O)[C@@H](COP(=O)(S)O[C@H]2[C@H]1F)O[C@H]3n1nnc2c(C(F)(F)F)cccc21 (single isomer, unassigned) [Example 9-3]
Between A and B , which one shows the larger IC50 value? Bench note: the answer is the label of the chosen record.
B

----------
# experimental-target: STING WT (His-TVMV-S-hSTING(155-341)-H232R) (Homo sapiens, UniProt Q86WV6, H232R)
# Construct: STING WT: His-TVMV-S-hSTING(155-341)-H232R
# Sequence (Q86WV6 with tags, fused parts or gaps H232R): as the sequence (Q86WV6 with tags, fused parts or gaps G230A/H232R/R293Q) above, with A99G, Q162R counted along it
# experimental-details: STING HTRF binding assay (time resolved FRET competition), STING WT
# experimental-setup: 20 nM His-tagged STING WT cytoplasmic domain, 200 nM fluorescein-labeled cGAMP analog probe, one hour; read-out: HTRF Binding Assays IC50 WT
observed-property: IC50 (µM)

1 = Nc1ncnc2c1ncn2[C@@H]1O[C@@H]2COP(=O)(S)O[C@@H]3[C@H](O)[C@@H](COP(=O)(S)O[C@H]2[C@H]1F)O[C@H]3n1nnc2c([N+](=O)[O-])cccc21 (single isomer, unassigned) [Example 7-2]
2 = Nc1ncnc2c1ncn2[C@@H]1O[C@@H]2COP(=O)(O)O[C@@H]3[C@H](O)[C@@H](COP(=O)(S)O[C@H]2[C@H]1F)O[C@H]3n1nnc2c([N+](=O)[O-])cccc21 (stereo partly drawn) [Example 19-1]
Between 1 and 2 , which one shows the larger IC50 value? Bench note: the answer is the label of the chosen record.
2
(2: 4.66 µM, 1: 0.24 µM)
